Reported CDC % Relative activity is given for each of the following binders.
molecular target: human Claudin18.2 (human); experiment: cell-based or functional assay

{"binder": "240D6F5 (antibody, V domains shown) VH: QAYLQQSGAELVRSGASVKMSCKASGYTFTSHNMHWVKQTPGQGLEWIGYIYPGNGGTNYNQKFKGKATLTADPSSSTAYMQINSLTSEDSAVYFCTRDYYGNSFAYWGQGTLVTVSA VL: DIVMTQSPSSLTEKAGERVSMSCKSSQSLFNSGNQKNYLTWYQQKPGQPPKLLIYWASTRESGVPDRFTGSGSGTDFTLTISSVQAEDLAVYYCQNDYRYPFTFGAGTKLELK", "CDC % Relative activity": "119%"}
{"binder": "200A4H8 (antibody, V domains shown) VH: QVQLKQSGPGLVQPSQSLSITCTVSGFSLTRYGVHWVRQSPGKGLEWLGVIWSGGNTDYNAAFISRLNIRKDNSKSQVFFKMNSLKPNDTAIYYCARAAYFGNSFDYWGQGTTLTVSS VL: DIVMTQSPSSLPVTAGEKVTMSCKSSQSLLNSGNQKNYLTWYQQKPGQPPKLLIYWASTRDSGVPDRFTGSGSGTDFTLTISSVQAEDLAVYYCQNNYIYPLTFGAGTKLELK", "CDC % Relative activity": "84.5%"}
